# IC50 per entry
Biological target: human PI3Kα protein (Homo sapiens, UniProt P42336)
Construct: purchased Carna Biosciences, Inc; host or cells: baculovirus expression system
Sequence (P42336 whole entry): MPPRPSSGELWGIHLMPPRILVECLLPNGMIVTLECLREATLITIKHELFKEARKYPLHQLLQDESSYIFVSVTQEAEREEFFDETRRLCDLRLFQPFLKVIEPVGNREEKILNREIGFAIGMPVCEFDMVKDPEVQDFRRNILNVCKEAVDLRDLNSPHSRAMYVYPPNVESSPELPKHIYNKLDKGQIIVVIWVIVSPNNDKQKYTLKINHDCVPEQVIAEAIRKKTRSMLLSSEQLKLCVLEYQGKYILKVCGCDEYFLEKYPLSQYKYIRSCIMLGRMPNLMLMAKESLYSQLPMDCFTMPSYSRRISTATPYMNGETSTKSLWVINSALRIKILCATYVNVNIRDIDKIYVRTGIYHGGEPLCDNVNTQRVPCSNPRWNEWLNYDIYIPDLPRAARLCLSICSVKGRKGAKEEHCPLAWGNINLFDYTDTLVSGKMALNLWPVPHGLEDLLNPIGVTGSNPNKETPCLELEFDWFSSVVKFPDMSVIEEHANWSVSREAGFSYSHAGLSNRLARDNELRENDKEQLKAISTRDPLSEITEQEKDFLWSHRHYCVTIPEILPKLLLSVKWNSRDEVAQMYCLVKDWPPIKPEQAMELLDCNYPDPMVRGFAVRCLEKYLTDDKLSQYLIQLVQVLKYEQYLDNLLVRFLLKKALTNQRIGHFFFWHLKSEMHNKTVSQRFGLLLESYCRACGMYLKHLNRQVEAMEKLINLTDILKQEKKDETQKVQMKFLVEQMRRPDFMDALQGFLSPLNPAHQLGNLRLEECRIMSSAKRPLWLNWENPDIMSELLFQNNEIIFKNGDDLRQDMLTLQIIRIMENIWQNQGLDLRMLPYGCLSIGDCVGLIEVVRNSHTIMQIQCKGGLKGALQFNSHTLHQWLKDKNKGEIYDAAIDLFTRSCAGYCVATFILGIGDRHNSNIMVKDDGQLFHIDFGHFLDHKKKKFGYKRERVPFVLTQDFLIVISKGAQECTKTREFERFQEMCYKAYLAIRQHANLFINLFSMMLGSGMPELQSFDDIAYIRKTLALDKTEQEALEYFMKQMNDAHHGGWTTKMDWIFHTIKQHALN
Sequence (P27986 whole entry partner): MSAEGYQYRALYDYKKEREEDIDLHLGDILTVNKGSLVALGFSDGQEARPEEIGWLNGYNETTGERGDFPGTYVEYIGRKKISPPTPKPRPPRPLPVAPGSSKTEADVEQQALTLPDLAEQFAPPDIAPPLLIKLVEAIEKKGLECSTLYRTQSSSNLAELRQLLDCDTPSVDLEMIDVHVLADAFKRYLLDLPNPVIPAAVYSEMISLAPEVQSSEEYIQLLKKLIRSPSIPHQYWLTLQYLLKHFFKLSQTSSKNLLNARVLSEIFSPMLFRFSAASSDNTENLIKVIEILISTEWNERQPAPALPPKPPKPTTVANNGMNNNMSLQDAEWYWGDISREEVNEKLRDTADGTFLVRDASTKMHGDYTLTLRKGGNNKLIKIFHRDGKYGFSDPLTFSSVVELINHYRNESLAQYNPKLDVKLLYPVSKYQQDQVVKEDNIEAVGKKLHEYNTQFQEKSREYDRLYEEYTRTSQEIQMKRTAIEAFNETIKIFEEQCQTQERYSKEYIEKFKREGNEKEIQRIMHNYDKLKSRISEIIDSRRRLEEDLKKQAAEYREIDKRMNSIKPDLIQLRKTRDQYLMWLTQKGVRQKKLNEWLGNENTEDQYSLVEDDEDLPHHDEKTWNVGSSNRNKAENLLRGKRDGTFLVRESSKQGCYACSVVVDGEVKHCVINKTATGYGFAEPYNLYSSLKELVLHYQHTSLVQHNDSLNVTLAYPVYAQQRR
Assay: PI3Kα enzyme assay (ADP-Glo)
Format: biochemical
Settings: read-out: PI3Kα enzyme inhibitory activity

Examples with their reported IC50 follow.
{"columns": ["molecule", "IC50"],
 "data": [
  ["Cc1cncc(-c2cnc3ccc(Nc4cc(C(C)C)cnn4)nc3c2)c1", "1000 to 10000 nM"],
  ["CC(C)c1cnnc(Nc2ccc3ncc(N4CC5(COC5)C4)cc3n2)c1", "< 1000 nM"],
  ["CC(C)c1cnnc(Nc2ccc3ncc(-c4cn(C)nc4-c4ccc(C#N)nc4)cc3n2)c1", "< 1000 nM"]
]}

// next item, IC50 requested
Challenge: What does the record list as IC50 for CC(C)c1cnnc(Nc2ccc3ncc(N4CCN(CC(F)(F)F)CC4)cc3n2)c1 ?
Response given: 1000 to 10000 nM

====

Molecular target: human PI3Kα protein (Homo sapiens, UniProt P42336)
Construct: purchased Carna Biosciences, Inc; host or cells: baculovirus expression system
Test: PI3Kα enzyme assay (ADP-Glo)
Type: biochemical
Details: read-out: PI3Kα enzyme inhibitory activity
assayEndpoint: IC50

Example results:
{"columns": ["compound", "assayEndpoint", "result"],
 "data": [
  ["CNC(=O)CCn1cc(-c2cnc3ccc(Nc4nnc(C5CCCC5)s4)nc3c2)cn1 [Example 0342]", "IC50", "< 1 µM"],
  ["CC(C)c1cnnc(Nc2ccc3ncc(-c4cn(C)nc4-c4ccccc4)cc3n2)c1 [Example 0579]", "IC50", "< 1 µM"],
  ["CCCc1cnnc(Nc2ccc3ncc(-c4cnn(CCCN5CCCC5)c4)cc3n2)c1 [Example 0293]", "IC50", "< 1 µM"],
  ["Cc1cnnc(Nc2ccc3ncc(-c4cn(C)nc4-c4ccc(C#N)nc4)cc3n2)c1 [Example 0457]", "IC50", "< 1 µM"],
  ["Cn1cc(-c2cc3nc(Nc4nncs4)ccc3nc2N)cn1 [Example 0306]", "IC50", "< 1 µM"],
  ["Cn1cc(-c2cnc3ccc(Nc4nnc(C5CCCN5)s4)nc3c2)cn1 (centres unmarked) [Example 0246]", "IC50", "1 to 10 µM"]
]}

Challenge: Reported IC50, compound CC(C)Oc1cnnc(Nc2ccc3ncc(-c4cnn(CCCN5CCOCC5)c4)cc3n2)c1 [Example 0501] : ____
Response given: 1 to 10 µM

Challenge: How about this compound: CC(C)c1cnnc(Nc2ccc3ncc(-c4cnn(CCOC5CN(CC(F)F)C5)c4)cc3n2)c1 [Example 0747]
Response given: < 1 µM

====

Molecular target: human PI3Kα protein (Homo sapiens, UniProt P42336)
Construct: purchased Carna Biosciences, Inc; host or cells: baculovirus expression system
Experiment: PI3Kα enzyme assay (ADP-Glo)
Format: biochemical
Conditions: read-out: PI3Kα enzyme inhibitory activity
Protocol: In a PI3Kα enzyme assay, a product (manufactured by Carna Biosciences, Inc.) obtained by biotinylating a human PI3Kα protein produced by using a baculovirus expression system was used. […] The inhibitory activities of the compounds were evaluated using IC50 (50% inhibitory concentration). The IC50 was calculated using XLFIT (trade name, manufactured by ID Business Solutions).
pIC50: −log10 of the molar value.
assayEndpoint: pIC50

Solved entries:
{"columns": ["compound", "subjectOfTest", "assayEndpoint", "result"],
 "data": [
  ["CC(C)c1cnnc(Nc2ccc3ncc(-c4cnn(CCCN5CCN(c6ccccn6)CC5)c4)cc3n2)c1 [Example 0444]", "human PI3Kα protein (Homo sapiens, UniProt P42336)", "pIC50", "> 6.00"],
  ["CC(C)c1cnnc(Nc2ccc3ncc(-c4cnn(C(C)c5ccccn5)c4)cc3n2)c1 (stereo not shown) [Example 0414]", "human PI3Kα protein (Homo sapiens, UniProt P42336)", "pIC50", "> 6.00"],
  ["CC(C)c1cnnc(Nc2ccc3ncc(-c4cnn(CCOC5CN(C(=O)OC(C)(C)C)C5)c4)cc3n2)c1 [Example 0739]", "human PI3Kα protein (Homo sapiens, UniProt P42336)", "pIC50", "5.00 to 6.00"],
  ["CC(C)c1cnnc(Nc2ccc3ncc(-c4cnn(CCCN5CCOC[C@@H]5C)c4)cc3n2)c1 [Example 0650]", "human PI3Kα protein (Homo sapiens, UniProt P42336)", "pIC50", "> 6.00"],
  ["CC(C)c1cnnc(Nc2ccc3ncc(-c4cnc(N5CCNCC5)s4)cc3n2)c1 [Example 0502]", "human PI3Kα protein (Homo sapiens, UniProt P42336)", "pIC50", "> 6.00"]
]}

Challenge: What value of measured pIC50 is listed for OCCNc1cnc2ccc(Nc3nnc(C4CCCC4)s3)nc2c1 [Example 0310] ?
Response given: 5.00 to 6.00

Challenge: Param item: Cc1nn(C)cc1-c1cnc2ccc(Nc3cc(C(C)(C)O)cnn3)nc2c1 [Example 0547]
Response given: > 6.00

Challenge: // query: Cc1ccc(S(=O)(=O)NC2CN(c3cnc4ccc(Nc5cc(C(C)C)cnn5)nc4c3)C2)cc1 [Example 0866]
Response given: 5.00 to 6.00

Challenge: Another compound: CC(C)c1cnnc(Nc2ccc3ncc(-c4cn(C)nc4-c4ccc(N(C)C)nc4)cc3n2)c1 [Example 0793]
Response given: > 6.00

Challenge: What do you have for CC(C)c1cnnc(Nc2ccc3ncc(-c4cnn(CCCN5CC(OCC(F)F)C5)c4)cc3n2)c1 [Example 0714] ?
Response given: > 6.00

Challenge: What do we get for CC(C)c1cnnc(Nc2ccc3ncc(-c4cnn(CC(F)(F)CN5CCCC5)c4)cc3n2)c1 [Example 0735] ?
Response given: > 6.00

====

Measured IC50 accompanies every entry in the list below.
Target: human PI3Kα protein (Homo sapiens)
Construct: purchased Carna Biosciences, Inc; host or cells: baculovirus expression system
Assay: PI3Kα enzyme assay (ADP-Glo)
Type: biochemical
Details: 4.5 nmol/L PI3Kα, PIP2 50 μmol/L, ATP 100 μmol/L; read-out: PI3Kα enzyme inhibitory activity
Structures can show the parent of a compound that is named as a salt.

Some molecules with recorded IC50:
{"columns": ["molecule", "assayEndpoint", "result"],
 "data": [
  ["Cn1cc(-c2cnc3ccc(Nc4nnc(C5CCCC5)s4)nc3c2)c(C2CC2)n1", "IC50", "< 1000 nM"],
  ["c1ncc(Nc2cnc3ccc(Nc4nnc(C5CCCC5)s4)nc3c2)cn1", "IC50", "< 1000 nM"],
  ["CC(C)c1cnnc(Nc2ccc3ncc(-c4cnn(CCCN(C)C)c4)cc3n2)c1", "IC50", "< 1000 nM"],
  ["Cc1ncc(Nc2cnc3ccc(Nc4nnc(C5CCCC5)s4)nc3c2)cc1-n1nccn1", "IC50", "< 1000 nM"],
  ["c1nc2ccc(Nc3nnc(C4CCCC4)s3)nc2cc1N1CCn2cnnc2C1", "IC50", "< 1000 nM"],
  ["COc1ccc(-c2cnc3ccc(Nc4ncc(C)s4)nc3c2)cc1OC", "IC50", "1000 to 10000 nM"]
]}

Challenge: Any idea what IC50 was measured for Cn1cc(-c2cnc3ccc(Nc4nncs4)nc3c2)cn1 ?
Response given: < 1000 nM

Challenge: Now consider CC(C)c1nnc(Nc2ccc3nccc(Nc4ccnnc4)c3n2)s1 and answer again.
Response given: < 1000 nM

Challenge: // repeat for COc1ccc(Nc2ccnc3ccc(Nc4nnc(C(C)C)s4)nc23)cc1 and report
Response given: < 1000 nM

Challenge: How about CCCc1nn(C)cc1-c1cnc2ccc(Nc3nnc(C(C)C)s3)nc2c1 ?
Response given: < 1000 nM

Challenge: Now consider CCOC(=O)C1CCCN(c2cnc3ccc(Nc4nnc(C5CCCC5)s4)nc3c2)C1 (stereo not drawn) and answer again.
Response given: 10000 to 50000 nM

Challenge: Another molecule: Cn1cc(-c2cnc3ccc(Nc4nnc(Cc5ccccc5)s4)nc3c2)cn1
Response given: 10000 to 50000 nM

Challenge: Can you handle c1ccc(-c2cncc(Nc3cnc4ccc(Nc5nnc(C6CCCC6)s5)nc4c3)c2)cc1 next?
Response given: < 1000 nM

Challenge: Please do the same for CN(c1nnc(Nc2ccc3ncc(-c4cnn(C)c4)cc3n2)s1)S(=O)(=O)c1ccccc1 as well.
Response given: 1000 to 10000 nM

Challenge: Likewise for CS(=O)(=O)N1CCN(c2cnc3ccc(Nc4nnc(C5CCCC5)s4)nc3c2)CC1 [Example 0053, hydrochloride] ?
Response given: 1000 to 10000 nM

Challenge: Next up: Cn1cc(-c2cnc3ccc(Nc4nccs4)nc3c2)cn1
Response given: < 1000 nM

Challenge: Next molecule: COCc1nn(C)cc1-c1cnc2ccc(Nc3cc(C)cnn3)nc2c1
Response given: < 1000 nM

Challenge: Record: c1ncc(OCCN2CCOCC2)cc1Nc1cnc2ccc(Nc3nnc(C4CCCC4)s3)nc2c1
Response given: < 1000 nM

Measured values drawn from patent US9783536B2 for this set.
